# system under test: CXCR4 and CD4 co-expressed on cells (MOLM-13, THP-1, MT-4, PBMC; Jurkat CD4 low) (human, UniProt P61073 1-352; P01730 26-458)
# Sequence (P61073 whole entry, chain 1 of 2, other chains not shown): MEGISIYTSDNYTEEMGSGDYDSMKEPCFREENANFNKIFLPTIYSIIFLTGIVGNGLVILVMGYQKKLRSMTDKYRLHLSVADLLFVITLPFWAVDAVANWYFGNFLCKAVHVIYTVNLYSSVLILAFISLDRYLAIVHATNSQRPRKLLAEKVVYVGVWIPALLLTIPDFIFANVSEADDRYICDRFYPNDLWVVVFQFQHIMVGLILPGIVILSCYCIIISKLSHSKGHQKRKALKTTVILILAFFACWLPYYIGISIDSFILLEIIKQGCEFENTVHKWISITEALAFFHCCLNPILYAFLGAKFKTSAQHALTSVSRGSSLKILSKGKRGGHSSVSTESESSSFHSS
# assay method text: cell-based or functional assay
Would you mind telling me the reported IC50, HIV-1 BaL (R5), PBMC of each entry?
Answers are plain numbers, in nM.

Sample records with IC50, HIV-1 BaL (R5), PBMC:
# binder, units text, IC50, HIV-1 BaL (R5), PBMC
rows = [
    ("281F12-35GS-03F11 (bispecific antibody, also called CXCR4#2-35GS-CD4#8; CXCR4#2-CD4#8) EVQLVESGGGLVQAGDSLRLSCAASGRAFSRYAMGWFRQAPGKEREFVAAIGWGPSKTNYADSVKGRFTISRDNAKNTVYLQMNTLKPEDTAVYSCAAKFVNTDSTWSRSEMYTYWGQGTQVTVSSGGGGSGGGGSGGGGSGGGGSGGGGSGGGGSGGGGSEVQLVESGGGSVQPGGSLTLSCGTSGRTFNVMGWFRQAPGKEREFVAAVRWSSTGIYYTQYADSVKSRFTISRDNAKNTVYLEMNSLKPEDTAVYYCAADTYNSNPARWDGYDFRGQGTQVTVSS", "nM", 2.46),
    ("03F11-25GS-281F12 (bispecific antibody) EVQLVESGGGSVQPGGSLTLSCGTSGRTFNVMGWFRQAPGKEREFVAAVRWSSTGIYYTQYADSVKSRFTISRDNAKNTVYLEMNSLKPEDTAVYYCAADTYNSNPARWDGYDFRGQGTQVTVSSGGGGSGGGGSGGGGSGGGGSGGGGSEVQLVESGGGLVQAGDSLRLSCAASGRAFSRYAMGWFRQAPGKEREFVAAIGWGPSKTNYADSVKGRFTISRDNAKNTVYLQMNTLKPEDTAVYSCAAKFVNTDSTWSRSEMYTYWGQGTQVTVSS", "nM", 383),
]

Turning now to a further record.
Record 03F11-35GS-281F12 (bispecific antibody, also called CD4#8-35GS-CXCR4#2; CD4#8-CXCR4#2) EVQLVESGGGSVQPGGSLTLSCGTSGRTFNVMGWFRQAPGKEREFVAAVRWSSTGIYYTQYADSVKSRFTISRDNAKNTVYLEMNSLKPEDTAVYYCAADTYNSNPARWDGYDFRGQGTQVTVSSGGGGSGGGGSGGGGSGGGGSGGGGSGGGGSGGGGSEVQLVESGGGLVQAGDSLRLSCAASGRAFSRYAMGWFRQAPGKEREFVAAIGWGPSKTNYADSVKGRFTISRDNAKNTVYLQMNTLKPEDTAVYSCAAKFVNTDSTWSRSEMYTYWGQGTQVTVSS . Reported IC50, HIV-1 BaL (R5), PBMC: 35.9
